Let's look at some compounds and their measured inhibition at 10 µM.
TEST_SYSTEM: BChE from human serum (Homo sapiens, UniProt P06276)
Construct: BChE from human serum; purchased Sigma Aldrich (Milan, Italy); host or cells: human serum
Sequence (P06276 29-602): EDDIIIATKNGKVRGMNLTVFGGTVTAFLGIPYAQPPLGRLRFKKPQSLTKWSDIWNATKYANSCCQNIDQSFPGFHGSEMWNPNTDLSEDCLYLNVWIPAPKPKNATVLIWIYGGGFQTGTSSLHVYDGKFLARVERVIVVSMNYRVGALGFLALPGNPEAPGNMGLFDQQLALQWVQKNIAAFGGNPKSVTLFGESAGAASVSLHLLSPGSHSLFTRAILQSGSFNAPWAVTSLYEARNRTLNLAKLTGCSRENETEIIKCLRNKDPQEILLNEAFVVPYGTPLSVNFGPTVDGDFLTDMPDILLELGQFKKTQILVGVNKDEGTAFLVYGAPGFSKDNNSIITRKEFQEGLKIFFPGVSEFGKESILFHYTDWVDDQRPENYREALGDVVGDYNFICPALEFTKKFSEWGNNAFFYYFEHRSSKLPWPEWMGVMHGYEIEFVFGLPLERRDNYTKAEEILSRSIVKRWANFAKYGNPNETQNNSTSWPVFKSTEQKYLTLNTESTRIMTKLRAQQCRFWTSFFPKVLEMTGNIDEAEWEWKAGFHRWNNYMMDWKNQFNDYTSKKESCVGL
EXPERIMENT_NOTES: biochemical
CONDITION_SET: read-out: BChE % inhibition at 10 μM, 10 μM, values in parentheses, n.a. = not active

As a guide, the following entries are already answered.
* COc1ccc2c(c1)CC(=Cc1ccc(CN(C)Cc3ccccc3)cc1)C2=O [E/Z-1g] | 40%
* COc1ccc2c(c1)CC(=Cc1ccc(CN(C(C)C)C(C)C)cc1)C2=O [E/Z-1f] | 20%
* CCCCN(CCCC)Cc1ccc(/C=C2\Cc3cc(OC)ccc3C2=O)cc1 [Compound E-1d] | 28%
* CCN(CC)Cc1ccc(C=C2Cc3cc(OC)ccc3C2=O)cc1 (mixture of isomers) [E/Z-1a] | 28%
* COc1ccc2c(c1)CC(=Cc1ccc(CN(C)C)cc1)C2=O [E/Z-1b] | 25%

// field: inhibition at 10 µM; key: CCCN(CCC)Cc1ccc(C=C2Cc3cc(OC)ccc3C2=O)cc1 [E/Z-1c] ; value = 20%

# compound CCCN(CCC)Cc1ccc(/C=C2\Cc3cc(OC)ccc3C2=O)cc1 [Compound E-1c] ; its inhibition at 10 µM = 28%

Source of measurements: paper PMC10421270
